Exercise: state measured koff for each of the binders provided.
# target-system: T1, full-length Sudan GP (GPFL) (Sudan virus (SUDV), UniProt Q7T9D9 33-650)
# T1 construct: also called Sudan GPFL; GP(S)FL
# T1 sequence: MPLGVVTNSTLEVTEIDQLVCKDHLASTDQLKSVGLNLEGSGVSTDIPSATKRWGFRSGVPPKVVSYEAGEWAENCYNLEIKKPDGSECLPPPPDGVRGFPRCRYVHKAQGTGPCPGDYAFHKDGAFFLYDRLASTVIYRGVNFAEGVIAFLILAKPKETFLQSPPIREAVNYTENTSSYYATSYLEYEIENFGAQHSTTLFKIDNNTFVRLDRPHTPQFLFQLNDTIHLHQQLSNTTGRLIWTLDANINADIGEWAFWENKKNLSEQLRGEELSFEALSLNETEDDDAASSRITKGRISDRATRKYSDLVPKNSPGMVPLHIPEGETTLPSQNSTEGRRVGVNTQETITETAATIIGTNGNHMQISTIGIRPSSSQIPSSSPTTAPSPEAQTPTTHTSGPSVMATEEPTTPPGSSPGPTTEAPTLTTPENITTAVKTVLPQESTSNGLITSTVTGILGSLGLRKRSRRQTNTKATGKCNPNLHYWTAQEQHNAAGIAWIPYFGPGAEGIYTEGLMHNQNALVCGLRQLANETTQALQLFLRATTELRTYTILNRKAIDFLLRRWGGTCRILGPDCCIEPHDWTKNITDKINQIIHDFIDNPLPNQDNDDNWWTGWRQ
# assay-info: BLI, Fab, pH 7.4
Answer by giving the amount and then stating its unit.

Entry Fab generated from 338S (Fab, V domains shown) VH: EVQLVESGGGVVQPGRSLRLSCAASGFTFSQYGMHWVRQAPGKGLECVAVIWFDGSKKYYGDSVKGRFTISRDNSKNTLYLQMNSLRAEDTAVYFCARESLYYYDSGGHYYERGRIDYWGQGTLVTVSS VL: DIQMTQSPSSLSASVGDRVTITCRASQDISNFLAWFQQKPGKAPKSLIYAASSLLSGVPSKFSGSGSGTDFTLTISSLQPEDFATYYCQQYNSYPPTFGQGTKLEIK has what koff?
0.000632 s⁻¹

Entry Fab generated from 203S (Fab, V domains shown, also called 203S Fab) VH: QVQLVQSGAEVKKPGSSVKVSCKASGGTFSSYAISWVRQAPGQGLEWLGRILPALGLANYAQKYQDRVKITADKSTSTAYMELSRLGSEDTAVYYCARDRWVGAARRGQYFDYWGQGTQVTVSS VL: DIQMTQSPATLSASVGDRVTITCRASQSIGTWLAWYQQKPGKAPKLLIYDASSLESGVPPRFSGSGSETEFTLTISSLQPDDFATYYCHQYKSYSYTFGQGTKLEIK has what koff?
0.000376 s⁻¹

Entry Fab generated from 315S (Fab, V domains shown, also called 315S Fab) VH: EVQLVESGGGVVQPGRSLRLSCAASGFTFKTYTMHWVRQAPGKGLEWVAVITDDGVNKKYADSVKGRFTISRDNSKNTLYLQMNSLRLEDTAVYYCARSVVVLAAYPLDYWGQGTMVTVSS VL: DIQMTQSPSSLSASVGDRVTITCRASQTISTYLHWYQQRPGKAPKLLIYAASSLQSGVPSRVSGSGSGTDFTLTITSLQPEDFATYYCLQTYSLPLTFGGGTNVEIK has what koff?
0.000303 s⁻¹

Entry Fab generated from 382S (Fab, V domains shown, also called 382S Fab) VH: QVQLVQSGAEVKKPGSSVKVSCKASGGTFSNYGISWVRQAPGQGLEWMGRNIPIIGIANYAQKFQDRVTITADKSTSTVFMELRSLRYEDTAVYYCARDPLAARRGNWFDPWGQGTLVTVSS VL: DIQMTQSPSTLSASVGDRVTITCRASQSVSSWLAWYQQKPGKAPKLLIYDASTLQSGVPSRFSGSGSGTEFTLTISSLQPDDFATYYCQQYNSYSYTFGQGTKLEIK has what koff?
0.000422 s⁻¹

Entry Fab generated from 528S (Fab, V domains shown, also called 528S Fab) VH: EVQLAESGGGVVQPGRSLRLSCAASGFTFNSYGMHWVRQAPGKGLEWVAVIWDDGSKKYYADSVKGRFTISRDNSKNTLFLQMNSLRAEDTAVYYCARETIMFTFGEVIVSSRDNYYMDVWGKGTTVTVSS VL: EIVLTQSPATLSLSPGERATLSCRASQSVSNYLAWYQQKPGQAPRLLIYDASTRAIGIPARFSGVGSGTDFTLTISSLEPEDFAVYYCQQRSNWPPLTFGGGTKVEIK has what koff?
0.000387 s⁻¹

Entry Fab generated from 102S (Fab, V domains shown) VH: EVQLVESGGGLVQPGGSLRLSCSASGFTFHSYDMNWARQAPGKGLEWVSEISSSGQSKNYADSVRGRFTISRDNAKNSLYLQINSLRSEDTAVYYCARVGFVAKFGSDFSITHGTYYLDYWGQGTLVTVSS VL: QLVLTQSPATLSLSPGERATLSCRASQSVSNYLAWYQQKPGQAPRLLIYDASNRAPGVPARFSGSGSGTDFSLTISSLEPEDFAVYYCLQRSNWPPWTFGQGTKVEIK has what koff?
0.00504 s⁻¹

Entry Fab generated from 578S (Fab, V domains shown, also called 578S Fab) VH: EVQLVESGGGVVQPGRSLRLSCAASGFTFSSYELHWVRQAPGKGLEWVAVISYDGSSKYYADSLKGRFTISRDNSKNTLSLQMNSLRAEDTAMYYCVRQSEAYCSDGRCDWRRALDIWGQGTMVTVSP VL: DIQMTQSPSSLSASVGDRVTITCQASQDIKNYLNWYQQKPGKAPKLLIYDVSKLETGVPSRFSGSGSGTDFSFTISSLQPEDIATYYCQQYDNLPSYTFGQGTKLEIK has what koff?
0.000404 s⁻¹

Entry Fab generated from 365S (Fab, V domains shown, also called 365S Fab) VH: EVQLVESGGGLVQPGGSLRLSCAASGLTFSAYEMNWVRQAPGKGLEWVSHITTSGSAIYYADSVKGRFTISRDNAKNSLHLQMNRLRADDTAVYFCARDSTIVQCSGTSCHVSTYSYMDVWGKGTTVTVSS VL: EIVLTQSPATLSLSPGERATLSCRASQSVTTYLAWYQHKPGQAPRLLIYDASKRATGIPARFSGSGSGTDFTLTISSLEPEDFAVYHCQQRSSWPPITFGQGTRLEIK has what koff?
0.00171 s⁻¹

Entry Fab generated from 335S (Fab, V domains shown, also called 335S Fab) VH: EVQLVESGGGVVQPGRSLRLSCAASGFSFSNYAMHWVRQAPGKGLEWVAVTWYDGSSKYHADSVKGRFTISRDNSKNTLYLQMNSLRAEDTAVYYCARWGMGIVASPGNVLNYYYFMDVWGQGTTVIVSS VL: SYELTQPPSVSVSPGQTARITCSGNPLPKKHTYWYQQKPGQAPVLMIYKDSERPSRIPERFSGSSSGTTVTLTISGVQAEDEADYYCQSADSTGIVVFGGGTKLTVL has what koff?
0.000496 s⁻¹
